system: Staphylococcus aureus; test: Antimicrobial activity against Staphylococcus aureus MTCC 96 assessed as diameter of growth inhibition zone after 24 hr by paper disk diffusion technique; format: functional; note: test concentration or dose not given here
Consider the following compounds and their measured diameter of the inhibition zone (DIZ) readings.
Assay readout: diameter of the inhibition zone (DIZ)

In [3]: df
Out[3]:
                                   compound  observed_result
0  O=C1CSC(c2cc3ccccc3nc2Cl)N1c1ccc(Cl)cc1 (stereo unspecified)            23 mm
1  Cc1cnc(N2C(=O)CSC2c2cc3ccccc3nc2Cl)s1 (stereo unspecified)            24 mm
2  O=C1CSC(c2cc3ccccc3nc2Cl)N1c1cccc([N+](=O)[O-])c1 (stereo unspecified)            26 mm
3  O=C1C(Cl)C(c2cc3ccccc3nc2Cl)N1c1ccccc1 (stereo unspecified)           <10 mm
4  O=C1CSC(c2cc3ccccc3nc2Cl)N1c1ccccc1 (stereo unspecified)            17 mm
5  Cc1cccc(N2C(=O)CSC2c2cc3ccccc3nc2Cl)c1 (stereo unspecified)            18 mm
